The values you see were collected from the supplement of paper PMC9732359.

# testDescription: protein stability index of a GFP-peptide fusion (yeast GPS) (PSI 1-4); higher = more stable; sorted into four equal gates, so the index is relative within each strain
# conditionInfo: ubr1∆
measuredParameter: protein stability index
Answer with a bare number; do not write a unit.

[[record]]
residues = "KELESIDVLLEQTTGGN [RPB4]"
measuredparameter = "protein stability index"
result = 3.22

[[record]]
residues = "NNVYFAAGALFVSSGFD [RPN14]"
measuredparameter = "protein stability index"
result = 2.21

[[record]]
residues = "MSAPQAKILSQAPTELE [RPS7A]"
measuredparameter = "protein stability index"
result = 2.53

[[record]]
residues = "IKTFLVDLTSSNFADSA [YDL116W/NUP84]"
measuredparameter = "protein stability index"
result = 2.76

[[record]]
residues = "IAMPKRRMAFKPFGSAK [YLR335W/NUP2]"
measuredparameter = "protein stability index"
result = 2.73

[[record]]
residues = "GLNNDFLFQNINFERID [GRR1]"
measuredparameter = "protein stability index"
result = 2.12

[[record]]
residues = "DNKDKEGNAGGDQKTSE [YOR098C/NUP1]"
measuredparameter = "protein stability index"
result = 3.35

[[record]]
residues = "SLVKYPELLDSLAILGM [SWI1]"
measuredparameter = "protein stability index"
result = 2.16

[[record]]
residues = "SSISVMGENEKPDVTYA [RPT3]"
measuredparameter = "protein stability index"
result = 3.27

[[record]]
residues = "MLLITSGDSGVYTLACR [RPC11]"
measuredparameter = "protein stability index"
result = 2.46


*Q* Look at this sequence and give its reported protein stability index. IAIAGTGQIEGLLDYMR [COR1]
*A* 3.15

*Q* Look at this sequence and give its reported protein stability index. WQYYYYTLTEEGVEYLR [RPS10A]
*A* 3.21

*Q* Look at this sequence and give its reported protein stability index. PPDSDSSISVMGENEKP [RPT3]
*A* 1.77

*Q* Look at this sequence and give its reported protein stability index. SHNFQNAIFQMESEEVP [PCI8]
*A* 3.07

---

# testDescription: protein stability index of a GFP-peptide fusion (yeast GPS) (PSI 1-4); higher = more stable; sorted into four equal gates, so the index is relative within each strain
# conditionInfo: san1∆
Decision: protein stability index compared against 3; not below it gives label 1, below it gives label 0.

Study these solved cases before continuing.
[[record]]
residues = "KVTEKVLTQLTALALKY [CSI1]"
classlabel = "label 0"

[[record]]
residues = "FNQEGDYNFKYGIPLEF [PRP8]"
classlabel = "label 0"

[[record]]
residues = "DKLEKVTHDCYRVTLES [RPC34]"
classlabel = "label 1"

[[record]]
residues = "QTRWGLPSGRQDGVLLV [FAS2]"
classlabel = "label 0"


Query sequence follows.
*Q* Does the reported protein stability index for MAKCLDNPDQGISDMCR [YCS4] fall at or above the 3 mark?
*A* label 1

---

# testDescription: protein stability index of a GFP-peptide fusion (yeast GPS) (PSI 1-4); higher = more stable; sorted into four equal gates, so the index is relative within each strain
# conditionInfo: san1∆
Decision: protein stability index compared against 3; not below it gives true, below it gives false.

[[record]]
residues = "ESGLRPVSLLNSQLVGK [PCI8]"
classlabel = "true"


*Q* Does the reported protein stability index for ITFLQTLYIGNTANGRP [ECM29] fall at or above the 3 mark?
*A* false

*Q* Does the reported protein stability index for VHPIPDVAFADGGKTLR [YMR129W/POM152] fall at or above the 3 mark?
*A* false

*Q* Does the reported protein stability index for KEIYYTPDPSELAAKEE [FAS2] fall at or above the 3 mark?
*A* false

*Q* Does the reported protein stability index for INGWELTKAQKYLEQVL [RPL17A] fall at or above the 3 mark?
*A* true

*Q* Does the reported protein stability index for KRQFNNSYWLIILLGVL [ITC1] fall at or above the 3 mark?
*A* false

*Q* Does the reported protein stability index for MTEDIEQKKTATEVTPQ [RPC19] fall at or above the 3 mark?
*A* true

*Q* Does the reported protein stability index for DRLSLQDRQQLLPLVVS [ECM29] fall at or above the 3 mark?
*A* false

*Q* Does the reported protein stability index for IIPTTLEEQQQLEDESS [YML103C/NUP188] fall at or above the 3 mark?
*A* false

*Q* Does the reported protein stability index for ETTTQFKATHILDFGPG [FAS1] fall at or above the 3 mark?
*A* false

*Q* Does the reported protein stability index for NVFARLSRLLSLWEVFQ [RPC82] fall at or above the 3 mark?
*A* false

*Q* Does the reported protein stability index for TGEWFSSYEEFLERFDF [ITC1] fall at or above the 3 mark?
*A* false

*Q* Does the reported protein stability index for VDNVWADVYAKALEGKD [RPP1B] fall at or above the 3 mark?
*A* true
